Molecular target: Nonstructural protein 3 (Zika virus, UniProt A0A024AXB9)
Sequence (A0A024AXB9 whole entry): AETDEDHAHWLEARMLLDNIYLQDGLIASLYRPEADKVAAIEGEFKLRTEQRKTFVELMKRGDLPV
Assay: Functional biochemical assay to identify treatments for viral infectious disease that targets Zika NS2B-NS3 protease. Utilizing a direct enzyme activity measurement method, reading the fluorescence intensity is used to characterize the relative potency of inhibitors as IC50.
Parameters: species or system PRVABC59
Consider the following compounds; for each one, report its IC50.

Input line: Answer with the recorded IC50 for the compound listed here: O=c1ccc(N2CCN(Cc3c[nH]c4ccccc34)CC2)n[nH]1
Output line: > 99.5 µM

Input line: Answer with the recorded IC50 for the compound listed here: CCn1c(=O)c(N2C[C@H]3CCCN3C(=O)[C@H]2C)nc2ccccc21
Output line: > 99.5 µM

Input line: Answer with the recorded IC50 for the compound listed here: O=C(O)c1cc(Cl)ccc1S(=O)(=O)NC1CCN(Cc2ccc(F)c(F)c2)CC1
Output line: > 99.5 µM

Input line: Answer with the recorded IC50 for the compound listed here: Clc1cc(/C=C/c2cccc(-c3nn[nH]n3)c2)c2cn[nH]c2c1
Output line: > 99.5 µM

Input line: Answer with the recorded IC50 for the compound listed here: O=C(Nc1nc(O)c2c(n1)CNC2)c1cc(Cl)cc2[nH]ncc12
Output line: 8.43 µM

Input line: Answer with the recorded IC50 for the compound listed here: O=C(O)c1cc(F)c(F)cc1NS(=O)(=O)c1ccc(Oc2ccccc2Cl)cc1
Output line: 31.9 µM

Input line: Answer with the recorded IC50 for the compound listed here: O=C(Nc1ccc2c(c1)CNC2)N1CCC[C@@H]1COCc1ccccc1
Output line: > 25 µM

Input line: Answer with the recorded IC50 for the compound listed here: NCc1cccc(NC(=O)[C@@H](NC(=O)OCc2ccccc2)c2ccc(OCc3ccncc3)cc2)c1
Output line: 90 µM

Input line: Answer with the recorded IC50 for the compound listed here: Cc1ccc(S(=O)(=O)CNC(=O)[C@H](Nc2ccc3c(c2)CNC3)c2cc(Cl)cc3[nH]ncc23)cc1
Output line: 0.749 µM

Input line: Answer with the recorded IC50 for the compound listed here: CS(=O)(=O)c1ccc(-c2cccc([C@H](NC(=O)OCc3ccccc3)C(=O)Nc3cccc(CN)c3)c2)cn1
Output line: > 99.5 µM

Input line: Answer with the recorded IC50 for the compound listed here: O=C(NCC(F)F)[C@H](Nc1ccc2c(c1)CNC2)c1cc(Cl)ccc1Cl
Output line: 0.232 µM

Input line: Answer with the recorded IC50 for the compound listed here: COc1ccc([C@@H]2C[C@H]2NC(=O)c2cccc3c2CC(=O)N3)cc1
Output line: > 25 µM

Input line: Answer with the recorded IC50 for the compound listed here: NCc1cccc(NC(=O)[C@H](NC(=O)OCc2ccccc2)C2CCNCC2)c1
Output line: > 99.5 µM

Input line: Answer with the recorded IC50 for the compound listed here: O=S(=O)(Nc1ccc(Cl)cc1CN(CC1CC1)CC1CC1)c1ccc(Oc2ccccc2Cl)cc1
Output line: 32 µM

Input line: Answer with the recorded IC50 for the compound listed here: C(#C[C@H](Nc1ccc2c(c1)CNC2)c1cccc2[nH]ncc12)c1ccccc1
Output line: > 25 µM

Input line: Answer with the recorded IC50 for the compound listed here: Cc1cc(NC(=O)OCc2ccccc2)cc(C(=O)Nc2cccc(CN)c2)c1C
Output line: > 99.5 µM

Input line: Answer with the recorded IC50 for the compound listed here: Cc1cc(C(=O)Nc2cccc(CN)c2)cc(O)n1
Output line: > 99.5 µM

Input line: Answer with the recorded IC50 for the compound listed here: COC1CCN(C(=O)c2ccnc(NC(=O)c3cc(C4CC4)n(C)c3C)c2)CC1
Output line: > 25 µM

Input line: Answer with the recorded IC50 for the compound listed here: NCc1cccc(NC(=O)[C@@H]2CCC[C@]3(CCNC3=O)C2)c1
Output line: > 99.5 µM

Input line: Answer with the recorded IC50 for the compound listed here: CCn1cc(C#N)nc(N2CC[C@@H](CO)C2)c1=O
Output line: > 99.5 µM

====

Biological target: Nonstructural protein 3 (Zika virus)
Test: Functional biochemical assay to identify treatments for viral infectious disease that targets Zika NS2B-NS3 protease. Utilizing a direct enzyme activity measurement method, reading the fluorescence intensity is used to characterize the relative potency of inhibitors as IC50.
Design: species or system PRVABC59
Measure: IC50

Input line: Answer with the recorded IC50 for the compound listed here: Cc1ccc(OCc2ccccc2Cl)c(C(=O)Nc2cccc(CN)c2)c1
Output line: 43.2 µM

Input line: Answer with the recorded IC50 for the compound listed here: Cc1c(C(=O)Nc2cc(-c3ccccn3)c(Br)cn2)cc(C2CC2)n1C
Output line: > 99.5 µM

Input line: Answer with the recorded IC50 for the compound listed here: Cc1c(C(=O)Nc2ccc3c(c2F)CCN(C)C3=O)cc(C2CC2)n1C
Output line: > 25 µM

Input line: Answer with the recorded IC50 for the compound listed here: O=C(Nc1ccc2c(c1)CNC2)c1nccc2[nH]ncc12
Output line: 6.08 µM

Input line: Answer with the recorded IC50 for the compound listed here: Cc1c(C(=O)Nc2cc(CCCN)ccn2)cnn1C1CC1
Output line: > 25 µM

Input line: Answer with the recorded IC50 for the compound listed here: CS(=O)(=O)c1ccc(-c2cccc([C@H](NC(=O)OCc3ccccc3)C(=O)Nc3cccc(CN)c3)c2)cc1
Output line: 70.5 µM

Input line: Answer with the recorded IC50 for the compound listed here: O=C1C[C@H]2CN(C(=O)Nc3ccc4c(c3)CNC4)CC[C@H]2N1
Output line: > 25 µM

Input line: Answer with the recorded IC50 for the compound listed here: O=C(Nc1cc(Cl)cc(C(=O)NCC[C@H]2COCCN2)c1)OCc1ccccc1
Output line: > 99.5 µM

Input line: Answer with the recorded IC50 for the compound listed here: Cc1ccc(NC(=O)OC(C)(C)C)c2[nH]cc(CN3CCC(c4cscn4)CC3)c12
Output line: > 99.5 µM

Input line: Answer with the recorded IC50 for the compound listed here: N[C@H]1Cc2ccc(NC(=O)c3cc(Cl)cc(NC(=O)OCc4ccccc4)c3)cc2C1
Output line: 2.49 µM

Input line: Answer with the recorded IC50 for the compound listed here: O=C(Nc1ccc2c(c1)CNC2)c1cc(Cl)ccc1-n1cnnn1
Output line: 1.05 µM

Input line: Answer with the recorded IC50 for the compound listed here: Cc1cc(NC(=O)c2cc(C3CC3)n(C)c2C)ccc1N1CCCC1=O
Output line: > 25 µM

Input line: Answer with the recorded IC50 for the compound listed here: O=C(Nc1ccc2c(c1)CNC2)c1cc(Cl)cc2ccccc12
Output line: 0.113 µM

Input line: Answer with the recorded IC50 for the compound listed here: CCC1CCN(Cc2c[nH]c3ccccc23)CC1
Output line: > 99.5 µM

Input line: Answer with the recorded IC50 for the compound listed here: O=C(Nc1ccc(C2CCNCC2)cc1)c1cc(Cl)cc2[nH]ncc12
Output line: 9.21 µM

Input line: Answer with the recorded IC50 for the compound listed here: O=C1Cc2c(cccc2C(=O)Nc2ccc3c(c2)C(=O)OC3)N1
Output line: > 25 µM

Input line: Answer with the recorded IC50 for the compound listed here: O=C1OCc2ccc(NC(=O)c3cc(F)cc4c3CCNC4)cc21
Output line: > 25 µM

Input line: Answer with the recorded IC50 for the compound listed here: CC1CCN(CCCCNC(=O)C2CCN(c3ccc(C=O)cc3)CC2)CC1
Output line: > 24.9 µM

Input line: Answer with the recorded IC50 for the compound listed here: CC(C)[C@@H]1C(=O)O[C@H]1C(=O)O
Output line: > 99.5 µM

Input line: Answer with the recorded IC50 for the compound listed here: O=C(NCC(F)F)[C@H](Nc1ccc2c(c1)CNC2)c1cc(Cl)ccc1Sc1ccccc1
Output line: 0.494 µM

Input line: Answer with the recorded IC50 for the compound listed here: COc1ccccc1Cn1cnc2cc(C(=O)Nc3ccc4c(c3)CNC4)ccc21
Output line: > 25 µM

Input line: Answer with the recorded IC50 for the compound listed here: Cc1cc(C=O)c(C)n1-c1cccc(C(=O)N2CCN(C)CC2)c1
Output line: > 99.5 µM

Input line: Answer with the recorded IC50 for the compound listed here: c1cc(C2CCN(Cc3c[nH]c4ccccc34)CC2)c2ccncc2c1
Output line: 24.6 µM

Input line: Answer with the recorded IC50 for the compound listed here: N#Cc1c(C(F)F)cccc1N1CCC(n2ncc(N)c2C(F)(F)F)CC1
Output line: > 99.5 µM

Input line: Answer with the recorded IC50 for the compound listed here: CC(C)(C)NC(=O)C[C@H]1NCc2cc(NC(=O)c3cc(Cl)cc4[nH]ncc34)ccc21
Output line: 0.167 µM

Input line: Answer with the recorded IC50 for the compound listed here: O=C(Nc1ccc2c(c1)CNC2)c1cc(F)cc2[nH]c(CC[C@H]3CCCOC3)nc12
Output line: 0.135 µM

Input line: Answer with the recorded IC50 for the compound listed here: NC(=O)c1ccc(Cn2nnc(C=Cc3ccccc3)n2)cc1
Output line: > 99.5 µM

Input line: Answer with the recorded IC50 for the compound listed here: O=C(Nc1ccc(-n2nn[nH]c2=O)cc1)c1cc(Cl)cc(C2CC2)c1
Output line: > 99.5 µM

Input line: Answer with the recorded IC50 for the compound listed here: O=C1Cc2c(cccc2C(=O)N[C@H]2CC[C@@H](n3ccnn3)CC2)N1
Output line: > 25 µM

Input line: Answer with the recorded IC50 for the compound listed here: O=S(=O)(Cc1nnc(Cc2ccccc2)o1)c1ccc(O)cc1
Output line: > 99.5 µM

Input line: Answer with the recorded IC50 for the compound listed here: O=C(Nc1cc(Cl)cc(C(=O)Nc2cc(-c3nnn[nH]3)ccc2F)c1)OCc1ccccc1
Output line: 41.5 µM

Input line: Answer with the recorded IC50 for the compound listed here: c1ccc2sc(C3CCN([C@H]4Cc5[nH]c6ccccc6c5C4)CC3)nc2c1
Output line: > 99.5 µM

Input line: Answer with the recorded IC50 for the compound listed here: CN(CCS(N)(=O)=O)C(=O)c1cc(Cl)ccc1NS(=O)(=O)c1ccc(Oc2ccccc2Cl)cc1
Output line: > 99.5 µM

Input line: Answer with the recorded IC50 for the compound listed here: N#Cc1cc(-c2ccc3[nH]c(C(=O)O)cc3c2)cc(N2CCCC2)c1
Output line: > 99.5 µM

Input line: Answer with the recorded IC50 for the compound listed here: C=CC[C@H](Nc1cc(Cl)cc(NC(=O)OCc2ccccc2)c1)c1ccc(-c2nn[nH]n2)cc1
Output line: 9.66 µM

Input line: Answer with the recorded IC50 for the compound listed here: NCc1cccc(NC(=O)[C@H](NC(=O)OCc2ccccc2)C2CCN(C(=O)C3CCOCC3)CC2)c1
Output line: > 99.5 µM

Input line: Answer with the recorded IC50 for the compound listed here: O=C(Nc1ccc(NS(=O)(=O)c2ccc(Cl)cc2C(=O)O)cc1)c1ccccc1
Output line: > 99.5 µM

Input line: Answer with the recorded IC50 for the compound listed here: N=C(N)Nc1ccc(NC(=O)Oc2ccccc2)cc1
Output line: > 100 µM

Input line: Answer with the recorded IC50 for the compound listed here: N#Cc1cc(-c2ccc3[nH]c(C(=O)O)cc3c2)c2nc[nH]c2c1
Output line: > 99.5 µM

Input line: Answer with the recorded IC50 for the compound listed here: C[C@H](C(=O)O)N(C)C(=O)c1cc(Cl)cc(NC(=O)OCc2ccccc2)c1
Output line: > 99.5 µM

Input line: Answer with the recorded IC50 for the compound listed here: CCCCSc1ccc(Cl)cc1C(=O)Nc1cccc(CN)c1
Output line: 22.3 µM

Input line: Answer with the recorded IC50 for the compound listed here: NCc1cccc(NC(=O)c2ccc(F)c(NC(=O)OCc3ccccc3)c2F)c1
Output line: > 99.5 µM
